Where do these numbers come from? They come from paper PMC7765500.

Format: physicochemical
Details: pH 7.4
This listing pairs compounds with measured logD.

>  <Compound>
CC(=O)NC1CCCN(O)C(=O)/C=C(/C)CCOC(=O)C(NC(=O)[C@@H](Cc2ccccc2)NC(=O)[C@H](CC(C)C)NC(=O)[C@H](CC(N)=O)NC(C)=O)CCCN(O)C(=O)/C=C(/C)CCOC(=O)C(NC(C)=O)CCCN(O)C(=O)/C=C(/C)CCOC1=O (stereo in doubt) [[^68Ga]Ga-DAFC-NLF-Ac, metal not drawn]

>  <logD>
-0.8

$$$$
>  <Compound>
CC(=O)N[C@@H]1CCCN(O)C(=O)/C=C(/C)CCOC(=O)[C@H](NC(=O)CCC(=O)N[C@H](CCCNC(=N)N)C(=O)N[C@H](CCCCN)C(=O)N[C@H](CCCCN)C(=O)N[C@H](Cc2c[nH]c3ccccc23)C(=O)N[C@H](Cc2ccccc2)C(=O)N[C@H](Cc2c[nH]c3ccccc23)C(N)=O)CCCN(O)C(=O)/C=C(/C)CCOC(=O)[C@H](NC(C)=O)CCCN(O)C(=O)/C=C(/C)CCOC1=O (stereo in doubt) [[^68Ga]Ga-DAFC-D-PAF26, metal not drawn]

>  <logD>
-3.35

$$$$
>  <Compound>
CC(=O)N[C@@H]1CCCN(O)C(=O)/C=C(/C)CCOC(=O)[C@H](NC(=O)CCC(=O)N[C@@H](CC(N)=O)C(=O)N[C@@H](CC(C)C)C(=O)N[C@H](Cc2ccccc2)C(=O)O)CCCN(O)C(=O)/C=C(/C)CCOC(=O)[C@H](NC(C)=O)CCCN(O)C(=O)/C=C(/C)CCOC1=O (stereo in doubt) [[^68Ga]Ga-DAFC-succ-NLF, metal not drawn]

>  <logD>
-2.84

$$$$

###

System: A. fumigatus (ATCC 46645)
Assay type: cell-based, Aspergillus fumigatus
Conditions: AMM, 37 °C, 48 h
Square brackets hold non-standard residues; d marks the D form. Peptide text beside a SMILES is read from it.
This listing pairs compounds with measured MIC 48 h.
Measured property: MIC 48 h

>  <Compound>
CC(=O)N[C@H](CCCNC(=N)N)C(=O)N[C@H](CCCCN)C(=O)N[C@H](CCCCN)C(=O)N[C@H](Cc1c[nH]c2ccccc12)C(=O)N[C@H](Cc1ccccc1)C(=O)N[C@H](Cc1c[nH]c2ccccc12)C(N)=O [H2N-D-PAF26-Ac] (Ac-[dR][dK][dK][dW][dF][dW]-NH2)

>  <Data value>
>16 µg/mL

$$$$
>  <Compound>
CC(=O)NC1CCCN(O)C(=O)/C=C(/C)CCOC(=O)C(NC(=O)CCC(=O)N[C@H](CCCNC(=N)N)C(=O)N[C@H](CCCCN)C(=O)N[C@H](CCCCN)C(=O)N[C@H](Cc2c[nH]c3ccccc23)C(=O)N[C@H](Cc2ccccc2)C(=O)N[C@H](Cc2c[nH]c3ccccc23)C(N)=O)CCCN(O)C(=O)/C=C(/C)CCOC(=O)C(NC(C)=O)CCCN(O)C(=O)/C=C(/C)CCOC1=O (stereo partly drawn) [[Fe]DAFC-D-PAF26]

>  <Data value>
>16 µg/mL

$$$$

###

Format: physicochemical
Settings: pH 7.4

>  <Compound>
CC(=O)N[C@@H]1CCCN(O)C(=O)/C=C(/C)CCOC(=O)[C@H](NC(=O)CCC(=O)N[C@@H](CCCNC(=N)N)C(=O)N[C@@H](CCCCN)C(=O)N[C@@H](CCCCN)C(=O)N[C@@H](Cc2c[nH]c3ccccc23)C(=O)N[C@@H](Cc2ccccc2)C(=O)N[C@@H](Cc2c[nH]c3ccccc23)C(N)=O)CCCN(O)C(=O)/C=C(/C)CCOC(=O)[C@H](NC(C)=O)CCCN(O)C(=O)/C=C(/C)CCOC1=O [[^68Ga]Ga-DAFC-L-PAF26, metal not drawn]

>  <logD>
-3.13

$$$$
